The reported measurements were obtained from patent US7772271B2.

property: melting point

Recorded results for 3 molecules are shown here.
CCOc1ccc2c(I)c(-c3ccc(NC(=O)OC(C)C)cc3)n(CC3CC3)c2c1 : 135 to 140 °C
CC(NC(=O)Nc1ccc(-c2c(C#N)c3ccc(OC4CCOC4)cc3n2C2CC2)cc1)c1ccc(F)cc1 (stereo not shown) : 182 to 184 °C
CCCS(=O)(=O)Nc1ccc(-c2c(C#N)c3ccc(N4CCOCC4)cc3n2CC2CC2)cc1 : 186 to 189 °C

Then this molecule:
Per the record, CC(OC(=O)Nc1ccc(-c2c(C#N)c3ccc(OC4CCOC4)cc3n2C2CCC2)cc1)C1CC1 (stereo not shown) has melting point of 183 to 184 °C

* * *

property: melting point

CC(OC(=O)Nc1ccc(-c2c(C#N)c3ccc(OCCS(C)(=O)=O)cc3n2C2CCC2)cc1)C1CC1 (centres unmarked) : 135 to 140 °C

Memo: N#Cc1c(-c2ccc(OC(=O)NC3CCCCC3)cc2)n(CC2CC2)c2cc(OC3CCOCC3)ccc12 , reported melting point: 158 to 160 °C

CCCS(=O)(=O)Nc1ccc(-c2c(C#N)c3cc(C(=O)N4CCOCC4)ccc3n2C2CCC2)cc1 has a reported melting point of 128 to 129 °C

* * *

Documented melting point across a set of compounds

Solved entries (count: 3):
N#Cc1c(-c2ccc(NCC(F)F)cc2)n(C2CCC2)c2ccc(OCC(F)F)cc12 : 159 to 161 °C
N#Cc1c(-c2ccc(NC3=NC(O)(C(F)(F)F)CS3)cc2)n(C2CCC2)c2cc(OC3CCOCC3)ccc12 (centres unmarked) : 136 to 138 °C
CCCNC(=O)Nc1ccc(-c2c(C#N)c3ccc(O[Si](C)(C)C(C)(C)C)cc3n2CC)cc1 : 65 to 70 °C

Attention now shifts to the item below.
response.value for CSc1nccc(Oc2ccc3c(C#N)c(-c4ccc(NC(=O)OC(C)C)cc4)n(C4CCC4)c3c2)n1 (field: melting point) = 196 to 201 °C

* * *

property: melting point

In the examples that follow, each entry is paired with its recorded melting point.
N#Cc1c(-c2ccc(NS(=O)(=O)C3CC3)cc2)n(C2CCC2)c2cc(N3CCOCC3)ccc12 : 222 to 224 °C
N#Cc1c(-c2cnc(NC3CCCCC3)nc2)n(C2CCC2)c2cc(Oc3ncccn3)ccc12 : 217 to 218 °C
CCS(=O)(=O)Nc1ccc(-c2c(C#N)c3ccc(OC4CCS(=O)(=O)CC4)cc3n2C2CCC2)cc1 : 259 to 264 °C

Turning now to a further compound:
For record CCCS(=O)(=O)Nc1ccc(-c2c(C#N)c3ccc(OC4CCOCC4)cc3n2C2CCC2)cc1 the listed melting point is 185 to 187 °C

* * *

Measured melting point by item

N#Cc1c(-c2ccc(NC(=O)OC3CCC3)cc2)n(C2CCC2)c2cc(OC3COCOC3)ccc12 : 215 to 216 °C
C[C@@H](OC(=O)Nc1ccc(-c2c(C#N)c3ccc(-c4cccc(N5CCCC5)n4)cc3n2C2CCC2)cc1)C1CC1 : 250 to 252 °C
CCn1c(-c2ccc(N3CCCS3(=O)=O)cc2)c(C#N)c2ccc(OCCOCCOC)cc21 : 160 to 164 °C
CC(OC(=O)Nc1ccc(-c2cc3ccc(Oc4ncccn4)cc3n2C2CCC2)cc1)C(F)(F)F (stereo not shown) : 99 to 101 °C
CCOP(=O)(Nc1ccc(-c2c(C#N)c3ccc(OC4CCOCC4)cc3n2C2CCC2)cc1)OCC : 195 to 197 °C
N#Cc1c(-c2ccc(Nc3nc(C(F)(F)F)cs3)cc2)n(C2CCC2)c2cc(Oc3ncccn3)ccc12 : 241 to 245 °C

Data point: CS(=O)(=O)Nc1ccc(-c2c(C#N)c3ccc(OC4CCOCC4)cc3n2C2CC2)cc1 ; melting point = 205 to 207 °C

In plain terms, CN(C(=O)Oc1ccc(-c2c(C#N)c3ccc(OC4CCOCC4)cc3n2C2CCC2)cc1)c1ccccc1 has a documented melting point of 167 to 169 °C

The compound Cc1cc(Nc2ccc(-c3c(C#N)c4ccc(Oc5nccnc5C#N)cc4n3C3CCC3)cc2)n(C)n1 showed melting point equal to 233 to 235 °C

# melting point (compound: CCCS(=O)(=O)Nc1ccc(-c2c(C#N)c3ccc(Oc4nccc(C)n4)cc3n2C2CCC2)cc1 ) is 223 to 227 °C

Measured melting point of CCOc1ccc2c(C#N)c(-c3ccc(NC(=O)NCc4ccco4)cc3)n(C3CCC3)c2c1 : 192 to 198 °C

Noted for CC(C)(C)OC(=O)Nc1ccc(-c2c(C#N)c3ccc(OCS(C)(=O)=O)cc3n2CC2CC2)cc1 : its melting point reads 214 to 220 °C

The compound listed as CC(OC(=O)Nc1ccc(-c2c(C#N)c3ccc(OCCCCn4cncn4)cc3n2C2CCC2)cc1)C(F)(F)F (stereo not shown) shows melting point equal to 168 to 169 °C
